Data origin, for the record: ChEMBL document CHEMBL1140946

assay details: Metabolic stability in human hepatocytes assessed as compound remaining after 4 hrs
Type: ADME, cell-based, Hepatocyte
condition summary: human hepatocytes, read-out: Stability
parameter measured: remaining at 4 h (%)

[[record]]
molecule = "CCc1cc(CCC2(C3CCCC3)CC(O)=C(Cc3nc4nc(C)cc(C)n4n3)C(=O)O2)ccc1C(=O)NC (centres undefined)"
units_symbol = "%"
val = 85.1

[[record]]
molecule = "CCc1ccnc(CCC2(C3CCCC3)CC(O)=C(Cc3nc4nc(C)cc(C)n4n3)C(=O)O2)c1 (centres undefined)"
units_symbol = "%"
val = 33.9


A. CCc1cc(CC[C@]2(C3CCCC3)CC(O)=C(Cc3nc4nc(C)cc(C)n4n3)C(=O)O2)cc(CC)n1
B. CCc1cc(CCC2(C3CCCC3)CC(O)=C(Cc3nc4nc(C)cc(C)n4n3)C(=O)O2)ccc1CO (centres undefined)
Data request: Min remaining at 4 h? A | B In your reply, give the label of the chosen option.
Data returned: B
(B: 37.1%, A: 88.5%)

---

assay details: Hepatic clearance in monkey liver microsomes
Assay type: ADME, Macaca mulatta, Microsome
condition summary: rhesus monkey
parameter measured: CLhep predicted (mL/min/kg)
Report as a plain number; the unit mL/min/kg is understood.

Quick note, CLhep predicted for `CCc1cc(CC[C@]2(C3CCCC3)CC(O)=C(Cc3nc4nc(C)cc(C)n4n3)C(=O)O2)cc(CC)n1` landed at 27

---

assay details: Metabolic stability in human hepatocytes assessed as compound remaining after 4 hrs
Type: ADME, cell-based, Hepatocyte
condition summary: human hepatocytes, read-out: Stability
parameter measured: remaining at 4 h (%)

Before answering, review these 3 worked examples.
[[record]]
compound = "CCc1cc(CCC2(C3CCCC3)CC(O)=C(Cc3nc4nc(C)cc(C)n4n3)C(=O)O2)ccn1 (stereo not given)"
val = 93.9

[[record]]
compound = "CCc1cc(CC[C@@]2(C3CCCC3)CC(O)=C(Cc3nc4nc(C)cc(C)n4n3)C(=O)O2)cc(CC)n1"
val = 83.8

[[record]]
compound = "CCc1cncc(CCC2(C3CCCC3)CC(O)=C(Cc3nc4nc(C)cc(C)n4n3)C(=O)O2)c1 (stereo not given)"
val = 77.8


P. CCc1cc(CCC2(C3CCCC3)CC(O)=C(Cc3nc4nc(C)cc(C)n4n3)C(=O)O2)cc(CC)n1 (stereo not given)
Q. CCc1cc(CCC2(C3CCCC3)CC(O)=C(Cc3nc4nc(C)cc(C)n4n3)C(=O)O2)ccc1CC#N (stereo not given)
Data request: Hi, I'm comparing P with Q and wondering which one has the bigger number for remaining at 4 h. Any idea? In your reply, give the label of the chosen option.
Data returned: P

---

assay details: Volume of distribution at steady state in Sprague-Dawley rat at 2 mg/kg, po and 2 mg/kg, iv
Format: ADME, organism-based
condition summary: in vivo, read-out: Vdss
parameter measured: Vd (L/kg)
Report as a plain number; the unit L/kg is understood.

Quick note, Vd for CCc1cc(CC[C@]2(C3CCCC3)CC(O)=C(Cc3nc4nc(C)cc(C)n4n3)C(=O)O2)cc(CC)n1 [FILIBUVIR] landed at 1

---

assay details: Volume of distribution at steady state in Beagle dog at 2 mg/kg, po and 1 mg/kg, iv
Type: ADME, organism-based, Canis lupus familiaris
condition summary: in vivo, read-out: Vdss
parameter measured: Vd (L/kg)
Report as a plain number; the unit L/kg is understood.

Quick note, Vd for CCc1cc(CC[C@]2(C3CCCC3)CC(O)=C(Cc3nc4nc(C)cc(C)n4n3)C(=O)O2)cc(CC)n1 [FILIBUVIR] landed at 0.25

---

target: Cytochrome P450 1A2 (Homo sapiens, UniProt P05177)
Sequence (P05177 whole entry): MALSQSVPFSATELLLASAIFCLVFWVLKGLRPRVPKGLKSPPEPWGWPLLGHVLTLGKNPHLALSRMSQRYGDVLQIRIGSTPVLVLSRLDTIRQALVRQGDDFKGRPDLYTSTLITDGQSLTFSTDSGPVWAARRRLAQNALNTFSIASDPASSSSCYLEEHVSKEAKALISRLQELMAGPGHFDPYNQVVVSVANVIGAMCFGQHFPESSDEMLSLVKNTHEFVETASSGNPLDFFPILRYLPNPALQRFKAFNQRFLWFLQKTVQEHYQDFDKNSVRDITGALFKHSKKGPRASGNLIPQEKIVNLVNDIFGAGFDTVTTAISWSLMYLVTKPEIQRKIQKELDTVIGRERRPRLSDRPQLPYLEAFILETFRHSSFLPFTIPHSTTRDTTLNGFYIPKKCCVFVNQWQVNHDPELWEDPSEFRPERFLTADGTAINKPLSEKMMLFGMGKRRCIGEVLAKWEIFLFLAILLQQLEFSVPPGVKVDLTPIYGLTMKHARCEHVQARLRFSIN
assay details: Inhibition of CYP1A2
Format: ADME
parameter measured: IC50

Quick note, IC50 for CCc1cc(CC[C@]2(C3CCCC3)CC(O)=C(Cc3nc4nc(C)cc(C)n4n3)C(=O)O2)cc(CC)n1 [FILIBUVIR] landed at > 30 µM

---

assay details: Half life in cynomolgus monkey at 2 mg/kg, iv
Assay type: ADME, organism-based, Macaca fascicularis
Set-up: dose 2 mg/kg, route intravenous
condition summary: in vivo
parameter measured: half-life (h)
Report as a plain number; the unit h is understood.

Quick note, half-life for `CCc1cc(CC[C@]2(C3CCCC3)CC(O)=C(Cc3nc4nc(C)cc(C)n4n3)C(=O)O2)cc(CC)n1` landed at 2.1

---

assay details: Plasma clearance in Sprague-Dawley rat at 2 mg/kg, po and 2 mg/kg, iv
Assay type: ADME, organism-based
parameter measured: clearance (mL/min/kg)
Report as a plain number; the unit mL/min/kg is understood.

Quick note, clearance for CCc1cc(CC[C@]2(C3CCCC3)CC(O)=C(Cc3nc4nc(C)cc(C)n4n3)C(=O)O2)cc(CC)n1 [FILIBUVIR] landed at 21

---

System: Hepatitis C virus
assay details: Antiviral activity against HCV 1b Con1 isolate in human Huh7.5 cells assessed as renilla luciferase activity after 3 days by RNA replicon assay
Format: functional, organism-based, Hepacivirus hominis
condition summary: isolate Con1, Huh-7, 72 h
parameter measured: EC50 (nM)

P. Cc1cc(C)n2nc(CC3=C(O)CC(CCc4ccc(C(C)(C)C#N)c(F)c4)(C4CCCC4)OC3=O)nc2n1 (centres undefined)
Q. COc1cccc(CC2=C(O)CC(CCc3ccc(C(C)(C)C#N)c(F)c3)(C3CCCC3)OC2=O)c1 (centres undefined)
Data request: Min EC50? P | Q In your reply, give the label of the chosen option.
Data returned: P
(P: 15 nM, Q: 2900 nM)

1. CCc1cc(CC[C@@]2(C3CCCC3)CC(O)=C(Cc3nc4nc(C)cc(C)n4n3)C(=O)O2)cc(CC)n1
2. CCc1cc(CCC2(C3CCCC3)CC(O)=C(Cc3nc4nc(C)cc(C)n4n3)C(=O)O2)ccc1C(=O)NC (centres undefined)
Data request: Hi, I'm comparing 1 with 2 and wondering which one has the bigger number for EC50. Any idea? In your reply, give the label of the chosen option.
Data returned: 1
(1: 310 nM, 2: 190 nM)

---

assay details: Half life in Sprague-Dawley rat at 2 mg/kg, po and 2 mg/kg, iv
Type: ADME, organism-based
condition summary: in vivo
parameter measured: half-life (h)
Report as a plain number; the unit h is understood.

Quick note, half-life for CCc1cc(CC[C@]2(C3CCCC3)CC(O)=C(Cc3nc4nc(C)cc(C)n4n3)C(=O)O2)cc(CC)n1 [FILIBUVIR] landed at 2.5

---

assay details: Tmax in Beagle dog at 2 mg/kg, po and 1 mg/kg, iv
Type: ADME, organism-based, Canis lupus familiaris
condition summary: in vivo
parameter measured: Tmax (h)
Report as a plain number; the unit h is understood.

Quick note, Tmax for CCc1cc(CC[C@]2(C3CCCC3)CC(O)=C(Cc3nc4nc(C)cc(C)n4n3)C(=O)O2)cc(CC)n1 [FILIBUVIR] landed at 1

---

assay details: Volume of distribution at steady state in cynomolgus monkey at 2 mg/kg, iv
Type: ADME, organism-based, Macaca fascicularis
Design: dose 2 mg/kg, route intravenous
condition summary: in vivo, read-out: Vdss
parameter measured: Vd (L/kg)
Report as a plain number; the unit L/kg is understood.

Quick note, Vd for `CCc1cc(CC[C@]2(C3CCCC3)CC(O)=C(Cc3nc4nc(C)cc(C)n4n3)C(=O)O2)cc(CC)n1` landed at 0.8
